METHOD: Standard protocol for determination of kcat and KM (continuous spectrophotometric assay, Acetyl CoA hydrolysis at 235 nm)
Assay type: biochemical
ASSAY SETUP: purified protein; about 23° C.; 20 mM HEPES pH 6.8, 10% ethylene glycol, 0.2 mM acetyl CoA
Categorize each record by its Kcat using category 1 = under 0.3 s⁻¹, category 2 = from 0.3 s⁻¹ up to 1 s⁻¹, category 3 = 1 s⁻¹ and over

Category of SEQ ID NO: 389: GAT polypeptide (protein, 6_19B6, GAT polypeptide) MIEVKPINAEDTYEIRHRILRPNQPLEACMYETDLLRGAFHLGGYYRGKLISIASFHQAEHSELEGQKQYQLRGMATLEGYREQKAGSTLIRHAEELLRKKGADLLWCNARTSASGYYKKLGFSEQGEVYDIPPVGPHILMYKKLT :
category 2

For SEQ ID NO: 316: GAT polypeptide (protein, 14_6A8, GAT polypeptide) MIEVKPINAEDTYEIRHRILRPNQPLEACMYETDLLGGTFHLGGYYRGKLVSIASFNQAEHPELEGQKQYQLRGMATLEGYREQKAGSTLIRHAEELLRKKGADLLWCNARTSASGYYKKLGFSEQGEVYDTPPVGPHVLMYKKLT , which Kcat bin applies?
category 2

Into which category would you place SEQ ID NO: 433: GAT polypeptide (protein, 9_4H8, GAT polypeptide) MIEVKPINAEDTYEIRHRILRPNQPLEACMYETDLLGGTFHLGGYYRGKLISIASFNQAEHPELEGQKQYQLRGMATLEGYREQKAGSTLIRHAEELLRKKGADLLWCNARTSASGYYKKLGFSEQGEVYDIPPVGPHILMYKKLT ?
category 2

Assign a category based on measured Kcat for SEQ ID NO: 378: GAT polypeptide (protein, 4B_7E8, GAT polypeptide) MIEVKPINAEDTYEIRHRILRPNQPLEACMYETDLLGGTFHLGGYYRGKLISIASFHQAEHSELEGQKQYQLRGMATLEGYREQKAGSTLIRHAEELLRKKGADLLWCNARTSVSGYYKKLGFSEQGEVYDIPPIGPHILMYKKLT and give only the class name.
category 2

For SEQ ID NO: 438: GAT polypeptide (protein, 0_4B10, GAT polypeptide) MIEVKPINAEDTYELRHKILRPNQPIEACMYESDLLRGAFHLGGFYRGKLISIASFHQAEHSDLEGQKQYQLRGMATLEGYRDQKAGSTLIKHAEEILRKRGADMLWCNARTTASGYYKKLGFSEQGEIFDTPPVGPHILMYKRLT , which Kcat bin applies?
category 3

Note: place this molecule into its band. Item: SEQ ID NO: 508: GAT polypeptide (protein, GAT1_21F12, GAT polypeptide) MIEVKPINAEDTYEIRHRILRPNQPLEACKYETDLLGGTFHLGGYYRGKLISIASFHNAEHSELEGQKQYQLRGMATLEGYREQKAGSTLIRHAEELLRKKGADLLWCNARTSVSGYYKKLGFSEQGEVYDIPPIGPHILMYKKLT
category 1

Field: class (Kcat) — entry: SEQ ID NO: 416: GAT polypeptide (protein, 7_2A10, GAT polypeptide) MIEVKPINAEDTYEIRHRILRPNQPLEACKYETDLLGGTFHLGGYYRGKLISIASFHQAEHPELEGQKQYQLRGMATLEGYREQKAGSTLIRHAEELLRKKGADLLWCNARTSASGYYKKLGFSEQGGVYDIPPIGPHILMYKKLT
category 1

Any idea which band SEQ ID NO: 485: GAT polypeptide (protein, 1_6H6, GAT polypeptide) MIEVKPINAEDTYELRHKILRPNQPIEACMYESDLLRGSFHLGGFYRGQLISIASFHQAEHSDLEGQKQYQLRGMATLEGYRDQKAGSSLIKHAEEILRKRGADLLWCNARTSAAGYYKRLGFSEQGEIFDTPPVGPHILMYKKIT is in?
category 3
